Reported values of pKd for individual entries
Target: T1, Pfs230 D1 (aa 587–731) (Plasmodium falciparum, UniProt P68874 587-731)
T1 chain: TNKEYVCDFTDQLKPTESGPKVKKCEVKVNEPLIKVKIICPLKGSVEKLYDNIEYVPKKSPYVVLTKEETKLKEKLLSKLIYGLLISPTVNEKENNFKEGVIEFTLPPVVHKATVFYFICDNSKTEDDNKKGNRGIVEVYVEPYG
Assay: BLI; representative curve
pKd: −log10 of the molar value.
measurement kind: pKd

- binder: "nanobody D1 (VHH) VHH: QVQLQESGGGLVQAGDSLRLSCTASGRTFSNHAMGWFRQAPGKEREIVAVIFGTGRNSWYVDSVKGRFTISRDNAKNTVALQMNRLKPEDTAVYYCASGRTWYSGSSMAEYDYWGQGTQVTVSS"
  measurement kind: "pKd"
  val: 9.54
- binder: "nanobody E11 (VHH) VHH: QVQLQESGGGLVQPGGSLRLSCAASGFTSDYYGIGWFRQAPGKEREGVACISSSDGSTYYADSVKGRSTISRDNAKNTVYLQMNSLKPEDTAVYYCAADLSGIGCTTAQAMDVIGDFGDFGSWGQGTQVTVSS"
  measurement kind: "pKd"
  val: 8.50
- binder: "nanobody B4 (VHH) VHH: QVQLQESGGGLVQPGGSLRLSCAASGFTLDYYGIGWFRQAPGKEREGVSCISSSDGSTYYADSVKGRFTISRDNAKNTVYLQMNSLKPEDTAVYYCAADLTGIGCTTAQAMGVIGDFGDFGSWGQGTQVTVSS"
  measurement kind: "pKd"
  val: 8.70
- binder: "nanobody D11 (VHH) VHH: QVQLQESGGGLVQAGSSLRLSCAASGRTFSSYAMGWFRQAPGKEREFVAAIGWSGGTYYTDSVEGRFTISRDNAENTVYLQMNSLKPEDTAVYYCAAKASGSSWSERGYDYWGQGTQVTVSS"
  measurement kind: "pKd"
  val: 7.97

The reported numbers originate from paper PMC9788556.
